System: human sebocytes
ASSAY_DETAILS: Sebum suppression: 14C-acetate incorporation in cultured human sebocytes
Assay type: cell-based
EXPERIMENTAL_PARAMETERS: Homo sapiens, 100 μM test compound + 10 μM Retinol; read-out: % of Control
OBSERVABLE: activity at 100 µM (%)
Numbers only; they are read as %.

# annotated cases, reported activity at 100 µM shown
O=C(CC1c2ccccc2-c2ccccc21)N1CCC(O)(c2ccccc2)CC1
0.6
CC1=C(Cl)CCC=C1NC(=O)N1c2ccccc2CCc2ccccc21
0.5
CC(O)c1cccc(NC(=O)N2c3ccccc3CCc3ccccc32)c1 (centres unmarked)
0.6

q: For `CCCN(CCO)C(=O)CC1c2ccccc2-c2ccccc21` , what is its reported activity at 100 µM?
a: 27.2

q: For `O=C(Nc1ccc(OC(F)(F)F)cc1)N1c2ccccc2CCc2ccccc21` , what is its reported activity at 100 µM?
a: 0.6
